Tested on: YT (IL-2 2.5 ng/mL)
test_name: percent inhibition of viability; higher = more inhibition
run_parameters: 72 h; 1000 nM
Lab note - cut at 20% for percent inhibition of viability: fulfilled if strictly below, not fulfilled if not.

Field: example entries. Status: answers known.
1) CC(=O)NCC(=O)N1[C@@H]2CC[C@H]1c1ccc(Nc3ncc(C(F)(F)F)c(NC4CCC4)n3)cc12 (max concentration tested 10000 nM): not fulfilled
2) COc1cc([C@@H]2c3cc4c(cc3[C@@H](O[C@@H]3O[C@@H]5CO[C@@H](c6cccs6)O[C@H]5[C@H](O)[C@H]3O)[C@H]3COC(=O)[C@H]23)OCO4)cc(OC)c1O [Teniposide] (max concentration tested 10000 nM): not fulfilled
3) COc1cc2c(cc1O)CC[C@@H]1[C@@H]2CC[C@]2(C)[C@@H](O)CC[C@@H]12 [2-methoxyestradiol] (max concentration tested 10000 nM): not fulfilled
4) O=C1NC(=O)/C(=C/c2ccc3nccc(-c4ccncc4)c3c2)S1 (max concentration tested 10000 nM): not fulfilled
5) O=C(/C=C\n1cnc(-c2cc(C(F)(F)F)cc(C(F)(F)F)c2)n1)NNc1cnccn1 [Selinexor] (max concentration tested 10000 nM): not fulfilled
6) O=C(Nc1ccncc1)C(=O)c1cn(Cc2ccc(Cl)cc2)c2ccccc12 [Indibulin] (max concentration tested 10000 nM): not fulfilled
7) COc1cc2c(NC3CCN(C(C)C)CC3)nc(C3CCCCC3)nc2cc1OCCCN1CCCC1 [UNC0638] (max concentration tested 10000 nM): fulfilled
8) CCOc1cc2ncc(C#N)c(Nc3ccc(OCc4ccccn4)c(Cl)c3)c2cc1NC(=O)/C=C/CN(C)C [Neratinib] (max concentration tested 1000 nM): fulfilled

Req: Would you kindly verify if percent inhibition of viability of CC1=C(/C=C/C(C)=C/C=C/C(C)=C/C(=O)O)C(C)(C)CCC1 [Tretinoin] (max concentration tested 10000 nM) is strictly less than 20%?
Resp: fulfilled

Req: # iterate: O=C(Nc1ccc2[nH]nc(-c3ccncc3)c2c1)[C@@H]1CCN(CC(=O)N2CCN(c3ccc(-c4ncccn4)cc3)CC2)C1 (max concentration tested 10000 nM)
Resp: fulfilled

Req: # iterate: S=c1[nH]cnc2nc[nH]c12 [Mercaptopurine] (max concentration tested 10000 nM)
Resp: not fulfilled

Req: # iterate: Cc1sc2c(c1C)C(c1ccc(Cl)cc1)=N[C@@H](CC(=O)Nc1ccc(O)cc1)c1nnc(C)n1-2 [OTX015] (max concentration tested 10000 nM)
Resp: not fulfilled

====

Test system: normal NK cells expanded with K562-aAPC
test_name: percent inhibition of viability; higher = more inhibition
run_parameters: 72 h; IL-2 2.5 ng/mL; 10 nM
Exercise: for every item that follows, state its recorded percent inhibition of viability.
Answers are plain numbers, in %.

Some compounds with recorded percent inhibition of viability:
1) Cc1sc2c(c1C)C(c1ccc(Cl)cc1)=N[C@@H](CC(=O)Nc1ccc(O)cc1)c1nnc(C)n1-2 [OTX015] (max concentration tested 10000 nM): -1.01
2) CCn1c(-c2nonc2N)nc2cnc(Oc3cccc(NC(=O)c4ccc(OCCN5CCOCC5)cc4)c3)cc21 (max concentration tested 10000 nM): -0.78

Attention now turns to another entry.
Req: # input compound: Cc1c2oc3c(C)ccc(C(=O)N[C@@H]4C(=O)N[C@H](C(C)C)C(=O)N5CCC[C@H]5C(=O)N(C)CC(=O)N(C)[C@@H](C(C)C)C(=O)O[C@@H]4C)c3nc-2c(C(=O)N[C@@H]2C(=O)N[C@H](C(C)C)C(=O)N3CCC[C@H]3C(=O)N(C)CC(=O)N(C)[C@@H](C(C)C)C(=O)O[C@@H]2C)c(N)c1=O [Dactinomycin] (max concentration tested 1000 nM) ; wanted: its percent inhibition of viability
Resp: 28.6
